- tgt: Human leukocyte elastase (HLE) (Homo sapiens)
- Construct: purchased Elastin Products, St. Louis, Mo
- Sequence (P08246 30-267): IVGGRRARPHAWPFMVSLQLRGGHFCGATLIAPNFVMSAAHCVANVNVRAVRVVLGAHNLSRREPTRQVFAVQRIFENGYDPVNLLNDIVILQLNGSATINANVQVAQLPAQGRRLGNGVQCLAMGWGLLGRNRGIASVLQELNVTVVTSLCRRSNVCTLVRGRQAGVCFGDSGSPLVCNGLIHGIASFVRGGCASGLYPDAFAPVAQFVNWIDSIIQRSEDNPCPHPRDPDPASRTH
- experimentalProtocol: Spectrophotometric assay of HLE inactivation (in vitro)
- Type: biochemical
- runConditions: Table VI, sulfur-containing amino acid esters; read-out: kobsd /[I], inhibition of HLE
valueType: kinact/KI (M⁻¹ s⁻¹)

[A] COC(=O)[C@H](CSC)NC(=O)n1ccnc1
[B] COC(=O)CSC[C@H](NC(=O)n1ccnc1)C(=O)OC
Query: Dear colleague, could you let me know whether A or B has the lower recorded kinact/KI? Thanks. Please indicate the selected item by its label.
Reply: B
(B: 15 M⁻¹ s⁻¹, A: 4050 M⁻¹ s⁻¹)

###

- tgt: Human leukocyte elastase (HLE) (Homo sapiens, UniProt P08246)
- Construct: purchased Elastin Products, St. Louis, Mo
- experimentalProtocol: Spectrophotometric assay of HLE inactivation (in vitro)
- Assay type: biochemical
- runConditions: Table VI, sulfur-containing amino acid esters; read-out: kobsd /[I], inhibition of HLE
- Description: The appropriate amount of inhibitor in acetonitrile was mixed with PPE in phosphate buffer solution and placed in a constant temperature bath. Aliquots were withdrawn at different time intervals and transferred to a cuvette containing 100 uL of substrate, 140 uL of acetonitrile, and 2 mL of phosphate buffer, pH 6.5. After incubating for 30 seconds, the absorbance change was monitored for two minutes at 347.5 nm. […] (kobsd) were determined by plotting in [E]t /[E]o vs time.
valueType: kinact/KI (M⁻¹ s⁻¹)

| structure | tgt | resultUnits | kinact/KI |
| --- | --- | --- | --- |
| CCSC[C@H](NC(=O)S(=O)(=O)O)C(=O)OC | Human leukocyte elastase (HLE) (Homo sapiens, UniProt P08246) | M⁻¹ s⁻¹ | 1800 |

[P] COC(=O)[C@H](CSC)NC(=O)S(=O)(=O)O
[Q] COC(=O)CSC[C@H](NC(=O)S(=O)(=O)O)C(=O)OC
[R] CCSC[C@H](NC(=O)n1ccnc1)C(=O)OC
Query: With regard to kinact/KI, arrange the entries in ascending order, please. Arrange the labels as the request states and list them.
Reply: Q, P, R
(Q: 17 M⁻¹ s⁻¹, P: 1510 M⁻¹ s⁻¹, R: 4230 M⁻¹ s⁻¹)
